# test_method_notes: Human HepG2 cell viability assay in 384 well format
# Assay type: toxicity, cell-based
# Parameters: dose 125 nL, time 70.5 hour; concentration not given beside the values
# condition_parameters: HepG2 cells, read-out: Inhibition
Listed here: items and their measured cytotoxicity at 70.5 h.
Respond with the bare value in %.

Prompt: Any idea what cytotoxicity at 70.5 h was measured for `CC(C)C(=O)N1CCN(C(=O)c2cc(C(C)C)on2)[C@H]2CS(=O)(=O)C[C@H]21` ?
Completion: 14.2

***
Prompt: So what does the record say about cytotoxicity at 70.5 h for `CCN1CC[C@@]2(C(=O)N(C)C)CCN(C(=O)Cc3ccccc3)CC[C@@H]12` ?
Completion: -8.1

Prompt: What value of measured cytotoxicity at 70.5 h is listed for CCn1cc(CN2CCCC3(CCC(=O)N(CCC(C)C)C3)C2)cn1 (stereo not given) ?
Completion: -1.61

Prompt: cytotoxicity at 70.5 h for `CN(Cc1cccnc1)[C@@H]1CN(C(=O)c2ccno2)[C@@H]2CCCO[C@H]12` ?
Completion: -5.28

Prompt: Fill in the blank: the reported cytotoxicity at 70.5 h of O=C(CCn1cncn1)NC1CCS(=O)(=O)C1 (stereo not given) is ____.
Completion: -11

Prompt: Value lookup for cytotoxicity at 70.5 h; key = CC(C)C1CCCN1C(=O)c1ccc(-n2ncc(C#N)c2N)cc1 (stereo not given)
Completion: -5.76

Prompt: Could you tell me which cytotoxicity at 70.5 h is on file for `CCc1noc(CN2CCC(C(=O)Nc3cnn(CC)c3)CC2)n1` ?
Completion: -10.6

Prompt: Reported cytotoxicity at 70.5 h, compound `CC(C)Cc1noc(CN2CCN(S(C)(=O)=O)CC2)n1` : ____
Completion: -7.6

###

Measured cytotoxicity at 70.5 h values are reported for all entries that follow.
# test_method_notes: Human HepG2 cell viability assay in 384 well format
# Type: toxicity, cell-based
# Parameters: dose 125 nL, time 70.5 hour; concentration not given beside the values
# condition_parameters: HepG2 cells, read-out: Inhibition
Kindly answer with a numeric value in %, unit omitted.

Prompt: GET /values?readout=cytotoxicity at 70.5 h&item= `CC[C@@H]1N(Cc2ccccn2)CCC[C@]12CCC(=O)N2CCOC`
Completion: -5.82

###

# test_method_notes: Human HepG2 cell viability assay in 384 well format
# Type: toxicity, cell-based
# Set-up: dose 125 nL, time 70.5 hour; concentration not given beside the values
# condition_parameters: HepG2 cells, read-out: Inhibition
reported_metric: cytotoxicity at 70.5 h (%)
Give the value in % but do not write % after it.

Consider the reported cytotoxicity at 70.5 h for these compounds:
Prompt: I'd like to know its cytotoxicity at 70.5 h. The compound in question is `O=C(NCCCN1CCOCC1)c1ccn(COc2ccc(Br)cc2)n1`
Completion: 12.3

Prompt: Suppose we examine the compound `C[C@@H]1CN(C(=O)C2CCOCC2)C[C@]12CCN(c1cccnc1)C2=O` ; what cytotoxicity at 70.5 h value has been reported?
Completion: -6.64

Prompt: Return reported cytotoxicity at 70.5 h; argument: `CCC(=O)N1CCN(C(=O)Nc2cccc(C#N)c2)[C@H]2CS(=O)(=O)C[C@H]21`
Completion: -15.6

More entries:
Prompt: State the recorded cytotoxicity at 70.5 h for this entry: `CCc1ccc(CNC(=O)CCc2nnc(-c3ccc(C)s3)o2)nc1`
Completion: -3.31

Prompt: Which cytotoxicity at 70.5 h is listed for `COC(=O)c1cccn1C1CCN(C(=O)c2cc(C)ccc2O)CC1` ?
Completion: 2.48

Prompt: Param item = CN1C(=O)CC(c2ccccc2)C12CCN(CCO)CC2 (stereo not given) ; retrieve measured cytotoxicity at 70.5 h.
Completion: 2.6

Prompt: So what does the record say about cytotoxicity at 70.5 h for `CC[C@@H]1N(Cc2cc(OC)cc(OC)c2)CCC[C@]12CCC(=O)N2C` ?
Completion: -16.6

Prompt: Which cytotoxicity at 70.5 h value belongs to CCOc1cc(C(=O)N(C)C)ccc1NC(=O)C(C)c1ccsc1 (stereo not given) ?
Completion: 26

Prompt: Field request: cytotoxicity at 70.5 h | item: CC1CCC2(CC1)Nc1ccccc1CO2 (stereo not given)
Completion: 15.1

Prompt: Which measured cytotoxicity at 70.5 h value corresponds to CN(C)Cc1cc(C2CCCCN2S(=O)(=O)c2cccc(Cl)c2)nn1C (stereo not given) ?
Completion: -3.27

Prompt: I would be grateful if you could share the reported cytotoxicity at 70.5 h for `NC(=O)N1CCC2(CCN(C(=O)c3cccnc3)CC2)C1` .
Completion: 0.925

Prompt: Which cytotoxicity at 70.5 h is listed for CN1CCCC1c1ccnc(-c2ccccn2)n1 (stereo not given) ?
Completion: -1.8

Prompt: Given the entry CCC(CNC(=O)c1cccc(S(=O)(=O)NC)c1)N1CCCC1 (stereo not given) , report its measured cytotoxicity at 70.5 h.
Completion: -2.78

Prompt: What value of cytotoxicity at 70.5 h has been recorded for this entry: CSCC(=O)NC(Cc1ccc(C)cc1)c1ccccn1 (stereo not given)
Completion: 0.833

Prompt: What value of measured cytotoxicity at 70.5 h is listed for `OCc1ccc(N2CCN(c3ncccn3)CC2)c(F)c1` ?
Completion: -5.65

Prompt: Any idea what its cytotoxicity at 70.5 h is? The compound is `CCS(=O)(=O)N1CCC(Oc2ccc(C#N)cc2)CC1`
Completion: 24.1

Prompt: Suppose we examine the compound `CNC(=O)c1cnc2n1CCN(C(=O)Cc1ccccn1)C2` ; what cytotoxicity at 70.5 h value has been reported?
Completion: -13.8
